# experiment.description: Biodistribution studies of 11C tracers
# Assay type: in vivo, Wistar rats
# test.settings: 2 min p.i., normalized for body weight
# Protocol: Biodistribution studies were carried out in healthy male Wistar rats (body weight 200-450 g) at 2 min, 30 min and 60 min post injection (p.i.) (n=3/time point). […] The radioactivity in blood, organs and other body parts was measured using an automated gamma counter. […] For calculation of total radioactivity in blood, blood mass was assumed to be 7% of the body mass.
Collected SUV Blood values appear next to each entry.

Solved cases below.
[11CH3]Oc1c(F)ccc(F)c1C1CCN(c2ccn3c(CC4CC4)nnc3c2Cl)CC1 [[^11C]B-2] = 0.60 ± 0.01
[11CH3]Oc1ccc(F)c(F)c1C1CCN(c2ccn3c(CC4CC4)nnc3c2Cl)CC1 [[^11C]B-10] = 0.90 ± 0.02
[11CH3]Oc1ccc(F)cc1C1CCN(c2ccn3c(CC4CC4)nnc3c2Cl)CC1 [[^11C]B-4] = 0.80 ± 0.01
[11CH3]Oc1c(F)ccc(F)c1C1CCN(c2ccn3c(CC4CC4)nnc3c2C(F)(F)F)CC1 [[^11C]B-3] = 1.20 ± 0.03

Look at this molecule and give its reported SUV Blood. [11CH3]Oc1cc(F)cc(F)c1C1CCN(c2ccn3c(CC4CC4)nnc3c2Cl)CC1 [[^11C]B-7]
0.80 ± 0.00

Look at this molecule and give its reported SUV Blood. [11CH3]Oc1cccc(F)c1C1CCN(c2ccn3c(CC4CC4)nnc3c2Cl)CC1 [[^11C]B-6]
0.90 ± 0.01

====

Collected SUV Blood values appear next to each entry.
# experiment.description: Biodistribution studies of 11C tracers
# Format: in vivo, Wistar rats
# test.settings: 30 min p.i., normalized for body weight
Answer with the value's number alone.

Solved cases below.
[11CH3]Oc1cc(F)cc(F)c1C1CCN(c2ccn3c(CC4CC4)nnc3c2Cl)CC1 [[^11C]B-7] = 0.50
[11CH3]Oc1c(F)ccc(F)c1C1CCN(c2ccn3c(CC4CC4)nnc3c2C(F)(F)F)CC1 [[^11C]B-3] = 0.40
[11CH3]Oc1c(F)ccc(F)c1C1CCN(c2ccn3c(CC4CC4)nnc3c2Cl)CC1 [[^11C]B-2] = 0.40
[11CH3]Oc1cccc(F)c1C1CCN(c2ccn3c(CC4CC4)nnc3c2Cl)CC1 [[^11C]B-6] = 0.40
[11CH3]Oc1ccc(F)c(F)c1C1CCN(c2ccn3c(CC4CC4)nnc3c2Cl)CC1 [[^11C]B-10] = 0.50

Could you now consider this next compound?
Look at this compound and give its reported SUV Blood. [11CH3]Oc1ccc(F)cc1C1CCN(c2ccn3c(CC4CC4)nnc3c2Cl)CC1 [[^11C]B-4]
0.40

====

# experiment.description: Biodistribution studies of 11C tracers
# Format: in vivo, Wistar rats
# test.settings: 2 min p.i.
Collected % ID Cortex values appear next to each entry.
Give the quantity in % ID, number only.

Solved cases below.
[11CH3]Oc1ccc(F)c(F)c1C1CCN(c2ccn3c(CC4CC4)nnc3c2Cl)CC1 [[^11C]B-10] = 0.053
[11CH3]Oc1cccc(F)c1C1CCN(c2ccn3c(CC4CC4)nnc3c2Cl)CC1 [[^11C]B-6] = 0.068
[11CH3]Oc1ccc(F)cc1C1CCN(c2ccn3c(CC4CC4)nnc3c2Cl)CC1 [[^11C]B-4] = 0.092
[11CH3]Oc1c(F)ccc(F)c1C1CCN(c2ccn3c(CC4CC4)nnc3c2Cl)CC1 [[^11C]B-2] = 0.097

Look at this compound and give its reported % ID Cortex. [11CH3]Oc1c(F)ccc(F)c1C1CCN(c2ccn3c(CC4CC4)nnc3c2C(F)(F)F)CC1 [[^11C]B-3]
0.062

Look at this compound and give its reported % ID Cortex. [11CH3]Oc1cc(F)cc(F)c1C1CCN(c2ccn3c(CC4CC4)nnc3c2Cl)CC1 [[^11C]B-7]
0.081

// provenance: patent US20130230459A1
